# System: H9C2 cells
# assay-name: MTT proliferation assay in Tob1 expressing (control) H9C2 cells
# Format: cell-based, rat
# experimental-conditions: H9C2 control vs Tob1 KO H9C2 cells, MTT
result-type: EC50 in H9C2 cells lower than EC50 in Tob1 KO H9C2 cells (selectivity for Tob1)

compound	reported
CC(=O)N[C@H]1C[C@@H](C(=O)N2CCOCC2)[C@H](c2ccc(Cl)cc2)C1 (relative stereo)	200-300
Cl.N[C@H]1C[C@@H](C(=O)N2CCOCC2)[C@H](c2ccc(Cl)cc2)C1 (relative stereo)	< 60,000
N[C@H]1C[C@@H](C(=O)N2CCSCC2)[C@H](c2ccc(Cl)cc2)C1 (relative stereo)	< 60,000

Kindly consider the entry below.
// query Provide the documented EC50 in H9C2 cells lower than EC50 in Tob1 KO H9C2 cells (selectivity for Tob1) with H9C2 cells as the system for CC(C)N(C)C(=O)[C@@H]1C[C@H](N)C[C@H]1c1ccc(Cl)cc1 (relative stereo)
// result 200-300
